Where do the numbers come from? From ChEMBL document CHEMBL1208705.

- measurement_notes: Chemical stability of the compound assessed as half life at 1.25 mM in presence of glutathione by NMR analysis
- Format: physicochemical
- test_settings: gsh
readout_name: half-life at 1250 µM (h)

# smiles_record, val
rows = [
    ("CN1CCN(CCCOc2ccc(-c3cccc(C#N)n3)cc2C(F)(F)F)CC1", 150),
    ("CN1CCN(CCCOc2ccc(-c3ccnc(C#N)c3)cc2C(F)(F)F)CC1", 120),
]
